B1: Ankyrin-2, residues 3571 to 3650; numbered along this chain, Q01484 (parent)
chain: ERLAYIADHLGFSWTELARELDFTEEQIHQIRIENPNSLQDQSHALLKYWLERDGKHATDTNLVECLTKINRMDIVHLME

Variants of: B1
Assay: abundance fitness (aPCA) (normalised: wild type 0, dead -1); higher = more abundant; growth selection in yeast, the domain comes from the species named
Details: Homo sapiens
Decide by abundance fitness: equal to or exceeding -0.1 means yes, less means no.

variant spec | label
D41Q | yes
H57C | yes
K56L | yes

Field: next variant
# check: abundance fitness of F12R is greater than or equal to -0.1
yes

Ref: the Human Domainome abundance scans (Beltran et al. 2025)
